# STUDY_TARGET: JAK2 (Homo sapiens)
# Sequence (O60674 whole entry, species assumed): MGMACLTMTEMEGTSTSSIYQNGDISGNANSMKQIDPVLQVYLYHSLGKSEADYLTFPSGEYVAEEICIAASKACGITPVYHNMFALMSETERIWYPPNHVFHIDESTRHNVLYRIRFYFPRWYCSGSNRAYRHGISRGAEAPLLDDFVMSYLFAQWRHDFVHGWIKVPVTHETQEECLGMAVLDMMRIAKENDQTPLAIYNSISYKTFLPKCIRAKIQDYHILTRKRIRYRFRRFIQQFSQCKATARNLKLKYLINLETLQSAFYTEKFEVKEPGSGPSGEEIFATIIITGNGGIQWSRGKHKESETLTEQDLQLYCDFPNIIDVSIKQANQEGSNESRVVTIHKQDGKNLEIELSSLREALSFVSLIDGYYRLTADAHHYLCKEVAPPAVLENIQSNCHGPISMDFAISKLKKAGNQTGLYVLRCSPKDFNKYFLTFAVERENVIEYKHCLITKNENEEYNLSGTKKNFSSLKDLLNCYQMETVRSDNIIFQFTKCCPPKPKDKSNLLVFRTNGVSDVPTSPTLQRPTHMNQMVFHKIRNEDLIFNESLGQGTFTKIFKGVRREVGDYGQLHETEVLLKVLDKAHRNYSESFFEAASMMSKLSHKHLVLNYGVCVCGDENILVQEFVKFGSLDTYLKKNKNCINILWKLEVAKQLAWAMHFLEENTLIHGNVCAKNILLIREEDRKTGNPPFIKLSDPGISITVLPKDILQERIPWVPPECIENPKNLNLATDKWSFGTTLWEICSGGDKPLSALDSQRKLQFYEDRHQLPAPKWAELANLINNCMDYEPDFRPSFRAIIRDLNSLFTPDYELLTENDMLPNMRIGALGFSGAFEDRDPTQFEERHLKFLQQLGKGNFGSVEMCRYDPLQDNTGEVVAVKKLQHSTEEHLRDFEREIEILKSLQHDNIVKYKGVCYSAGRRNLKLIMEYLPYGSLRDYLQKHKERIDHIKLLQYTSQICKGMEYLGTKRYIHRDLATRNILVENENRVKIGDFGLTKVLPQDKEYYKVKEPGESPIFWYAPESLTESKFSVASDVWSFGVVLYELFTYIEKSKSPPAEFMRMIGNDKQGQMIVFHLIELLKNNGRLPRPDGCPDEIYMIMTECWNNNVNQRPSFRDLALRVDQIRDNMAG
# ASSAY_COMMENT: JAK2 inhibition assay (radioactive enzyme assay, as for JAK3)
# Format: biochemical
# SETTINGS: average Ki if more than one value determined
VALUE_TYPE: Ki

Given CC(=O)N1[C@H](C)CN(c2cccc(-c3c[nH]c4ncc(NC(=O)c5cccc(F)c5)cc34)n2)C[C@@H]1C , state its recorded Ki. < 500 nM

I have this compound here, Clc1cnc2[nH]cc(-c3ccc4ccccc4c3)c2c1 , and I need its recorded Ki. 500 to 5000 nM

May I ask what Ki has been recorded for Clc1cnc2[nH]cc(-c3ccccn3)c2c1 ? 500 to 5000 nM

Report Ki for O=C(O)c1ccc(-c2c[nH]c3ncc(Cl)cc23)nc1NCc1ccccc1 please. < 500 nM

Which Ki reading was recorded for the compound CC(=O)N1[C@H](C)CN(c2cccc(-c3c[nH]c4ncc(C(=O)N(C)C)cc34)n2)C[C@@H]1C ? 500 to 5000 nM

What does the data say about its Ki? Entry: CC(C)CN(C)c1cccc(-c2c[nH]c3ncc(Cl)cc23)n1 < 500 nM

Recorded Ki of CC(=O)N1[C@H](C)CN(c2nc(-c3c[nH]c4ncc(Cl)cc34)c(F)cc2C#N)C[C@@H]1C , please. < 500 nM

# input compound: CC(=O)N1[C@H](C)CN(c2cccc(-c3c[nH]c4ncc(NC(=O)c5nc[nH]n5)cc34)n2)C[C@@H]1C ; wanted: its Ki < 500 nM

Looking for the measured Ki of CC(=O)N1[C@H](C)CN(c2cccc(-c3c[nH]c4ncc(NC(=O)Oc5ccccc5)cc34)n2)C[C@@H]1C , can you help? < 500 nM

# get_value(readout='Ki', item= O=C(O)c1cc(Br)cc(-c2c[nH]c3ncc(Cl)cc23)c1 ) < 500 nM

What measured Ki goes with C[C@H](CO)Nc1cccc(-c2c[nH]c3ncc(Cl)cc23)n1 ? < 500 nM

Form field: reported Ki of CC(C)(O)c1cccc(-c2c[nH]c3ncc(Cl)cc23)n1 < 500 nM

Return reported Ki; argument: C[C@H](Nc1nc(-c2c[nH]c3ncc(Cl)cc23)ncc1F)C(=O)NCCCn1ccnc1 500 to 5000 nM

Please report the recorded Ki for CC(=O)N1[C@H](C)CN(c2cccc(-c3c[nH]c4ncc(NC(=O)c5ccccc5)cc34)n2)C[C@@H]1C . < 500 nM

For the compound shown here, CC(=O)N1[C@H](C)CN(c2cccc(-c3c[nH]c4ncc(NC(=O)c5cccnc5)cc34)n2)C[C@@H]1C , give the reported Ki. < 500 nM

Requested field: Ki. Item: CC(=O)N1[C@H](C)CN(c2cccc(-c3c[nH]c4ncc(NC(=O)CCN5CCOCC5)cc34)n2)C[C@@H]1C < 500 nM

Request the reported Ki associated with O=C(O)c1ccc(-c2c[nH]c3ncc(Cl)cc23)cc1Cl < 500 nM

Which Ki is listed for CC(=O)N1[C@H](C)CN(c2cccc(-c3c[nH]c4ncc(NC(=O)CCCN5CCNCC5)cc34)n2)C[C@@H]1C ? < 500 nM

Given the entry C[C@H](Nc1nc(-c2c[nH]c3ncc(Cl)cc23)ncc1F)C(=O)NCCc1ccc(S(N)(=O)=O)cc1 , report its measured Ki. 500 to 5000 nM

Which Ki value is on record for N#Cc1ccc(-c2c[nH]c3ncc(Cl)cc23)cc1 ? < 500 nM

GET /values?readout=Ki&item= C[C@H](Nc1nc(-c2c[nH]c3ncc(Cl)cc23)ncc1C(F)(F)F)c1ccc(F)cc1 < 500 nM

Would you kindly share the measured Ki for CC(=O)N1[C@H](C)CN(c2cccc(-c3c[nH]c4ncc(NC(=O)OCC(C)C)cc34)n2)C[C@@H]1C ? < 500 nM

Endpoint output: Ki of CC(=O)N1CCCN(c2nccc(-c3c[nH]c4ncc(-c5cccnc5)cc34)n2)CC1 . Value? < 500 nM

I am curious: what Ki value has been reported for CC(=O)N1[C@H](C)CN(c2nc(-c3c[nH]c4ncc(Cl)cc34)cc(C)c2C#N)C[C@@H]1C ? < 500 nM

Look at this compound and give its reported Ki. COc1ccc(OC(=O)Nc2cnc3[nH]cc(-c4cccc(N5C[C@@H](C)N(C(C)=O)[C@@H](C)C5)n4)c3c2)cc1 < 500 nM

Would you kindly share the measured Ki for NC(=O)c1ccc(-c2c[nH]c3ncc(Cl)cc23)nc1NCc1ccccc1 ? < 500 nM

What value of measured Ki is listed for CC(=O)N1[C@H](C)CN(c2cccc(-c3c[nH]c4ncc(NC(=O)c5cccc(C#N)c5)cc34)n2)C[C@@H]1C ? < 500 nM

Looking for the measured Ki of CC(=O)N1CCCN(c2nccc(-c3c[nH]c4ncc(C(N)=O)cc34)n2)CC1 , can you help? < 500 nM

Record request: Ki value, item COC(=O)N1CCCN(c2cccc(-c3c[nH]c4ncc(Cl)cc34)n2)CC1 < 500 nM

# input compound: O=C(O)c1ccc(-c2c[nH]c3ncc(Cl)cc23)c(F)c1 ; wanted: its Ki > 5000 nM

Which Ki is listed for CC(=O)N1[C@H](C)CN(c2cccc(-c3c[nH]c4ncc(C(=O)OCC(C)C)cc34)n2)C[C@@H]1C ? < 500 nM

---

pKi: −log10 of the molar value.
pKi data for ROCK I (AA 6-553) (Homo sapiens) follow.

Request: pKi, test system ROCK I (AA 6-553) (Homo sapiens), entry Clc1cnc2[nH]cc(-c3cccc(Nc4ccccc4Cl)n3)c2c1 5.30 to 6.30

Find pKi (ROCK I (AA 6-553) (Homo sapiens)) for the entry CCC(=O)N1CCN(c2cccc(-c3c[nH]c4ncc(Cl)cc34)n2)CC1 5.30 to 6.30

Notebook entry, ROCK I (AA 6-553) (Homo sapiens) assay: pKi of CC(=O)c1ccc(-c2c[nH]c3ncc(-c4ccccc4)cc23)cc1 = ? > 6.30

Hi! What's the reported pKi for Clc1ccc(CNc2cccc(-c3c[nH]c4ncc(Cl)cc34)n2)c(Cl)c1 on ROCK I (AA 6-553) (Homo sapiens)? 5.30 to 6.30

Form entry - test system: ROCK I (AA 6-553) (Homo sapiens); read-out: pKi; molecule: Fc1cnc(-c2c[nH]c3ncc(Cl)cc23)nc1NCC1CCOCC1 5.30 to 6.30

Item: C[C@H](Nc1nc(-c2c[nH]c3ncc(Cl)cc23)ncc1F)C(=O)NCCN1CCCC1 Test system: ROCK I (AA 6-553) (Homo sapiens) Read-out: pKi Value: ? 5.30 to 6.30

pKi of Fc1cnc(-c2c[nH]c3ncc(Cl)cc23)nc1NC[C@H]1CCNC1 on ROCK I (AA 6-553) (Homo sapiens)? > 6.30

Please state recorded pKi (tested on ROCK I (AA 6-553) (Homo sapiens)) of CC(=O)N1[C@H](C)CN(c2nc(-c3c[nH]c4ncc(Cl)cc34)c(F)cc2C(N)=O)C[C@@H]1C 5.30 to 6.30

---

VALUE_TYPE: Ki

GET /values?readout=Ki&system=ROCK I (AA 6-553) (Homo sapiens)&item= CS(=O)(=O)c1ccc(CNc2cccc(-c3c[nH]c4ncc(Cl)cc34)n2)cc1 500 to 5000 nM

Fill in the recorded Ki for this compound, with ROCK I (AA 6-553) (Homo sapiens) as test system: CN(C)C(=O)c1ccc(-c2c[nH]c3ncc(-c4ccccc4)cc23)cc1 500 to 5000 nM

Lookup: Ki / ROCK I (AA 6-553) (Homo sapiens) / NC(=O)c1ccc(-c2c[nH]c3ncc(-c4ccoc4)cc23)cc1 < 500 nM

Notebook: pull reported Ki for ROCK I (AA 6-553) (Homo sapiens), entry CC(=O)N1[C@H](C)CN(c2cccc(-c3c[nH]c4ncc(C(=O)OCC(C)C)cc34)n2)C[C@@H]1C < 500 nM

Find Ki (ROCK I (AA 6-553) (Homo sapiens)) for the entry CCC(C)C(=O)Nc1cnc2[nH]cc(-c3cccc(N4C[C@@H](C)N(C(C)=O)[C@@H](C)C4)n3)c2c1 (some centres unmarked) 500 to 5000 nM

---

Kindly supply the reported pKi values for the records listed here.
pKi: −log10 of the molar value.

Param readout = pKi; param system = full length Aurora-A (AA 1-403) (Homo sapiens); param query = CNCCNC(=O)[C@H](C)Nc1nc(-c2c[nH]c3ncc(Cl)cc23)ncc1F ; response: value > 6.30

Record Clc1cnc2[nH]cc(-c3cccc(N4CCCC4)n3)c2c1 : what is its pKi with full length Aurora-A (AA 1-403) (Homo sapiens)? 5.30 to 6.30

What pKi appears in the records for this compound with full length Aurora-A (AA 1-403) (Homo sapiens)? C[C@H](Nc1nc(-c2c[nH]c3ncc(Cl)cc23)ncc1[N+](=O)[O-])c1ccc(F)cc1 > 6.30

Which measured pKi belongs to CC(=O)N1[C@H](C)CN(c2cccc(-c3c[nH]c4ncc(NC(=O)c5cccs5)cc34)n2)C[C@@H]1C , tested on full length Aurora-A (AA 1-403) (Homo sapiens)? 5.30 to 6.30
